These measurements were taken from patent US9149038B2.

Catalogue of pest or weed control at 70 g/ha values
Test system: Key Broadleaf Weed and Crop Species
protocol text: Post-Emergent Test II: postemergent herbicidal activity, visual rating after 14 d (Table 7)
Type: in vivo
test parameters: post-emergence, 336 h, velvetleaf (Abutilon theophrasti), 70 g ai/ha, read-out: Visual Growth Reduction (%) 14 Days After Application ABUTH
readout type: pest or weed control at 70 g/ha

Nc1c(F)c(-c2ccc(I)c3c2OC(F)(F)O3)nc(C(=O)O)c1Cl [Compound 81]    60 to 74%
COC(=O)c1nc(-c2cc3c(cc2F)OC(F)(F)O3)c(F)c(N)c1Cl [Compound 9]    85 to 94%
COC(=O)c1nc(-c2ccc3c(c2F)OC(F)(F)O3)cc(N)c1Cl [Compound 37]    95 to 100%
COC(=O)c1nc(-c2ccc3c(c2)OC(C)(C)O3)nc(N)c1Cl [Compound 55]    75 to 84%
COC(=O)c1nc(-c2c(F)cc3c(c2F)OC(F)(F)O3)cc(N)c1Cl [Compound 46]    95 to 100%
Nc1nc(-c2ccc3c(c2F)OC(F)(F)O3)nc(C(=O)O)c1Cl [Compound 59]    0 to 29%
COC(=O)c1nc(-c2ccc3c(c2C)OC(F)(F)O3)cc(N)c1Cl [Compound 35]    75 to 84%
COC(=O)c1nc(-c2cc3c(cc2F)OCO3)c(F)c(N)c1OC [Compound 26]    0 to 29%
COC(=O)c1nc(-c2cc3c(cc2F)OC(F)(F)O3)nc(N)c1Cl [Compound 56]    0 to 29%
